Provide the recorded Tm for the entries that follow.
B1: Lysozyme C, P61626 (parent)
chain: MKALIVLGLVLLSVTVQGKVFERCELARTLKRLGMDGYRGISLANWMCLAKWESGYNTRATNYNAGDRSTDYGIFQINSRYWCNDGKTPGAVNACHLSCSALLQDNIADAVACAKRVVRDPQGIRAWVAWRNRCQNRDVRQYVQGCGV

# Variants of: B1
# particulars: Homo sapiens; pH 2.7; Thermal; DSC; glycine 0.05 M; reversible: yes; structure 1LZ1; whole UniProt chain shown
Please reply with the bare figure in °C and do not write the unit itself.

[ask] Given the variant I77G , what is its reported Tm?
[reply] 52.2

[ask] Given the variant I74G , what is its reported Tm?
[reply] 62.2

[ask] Given the variant I77A , what is its reported Tm?
[reply] 59.7

[ask] Given the variant I74A , what is its reported Tm?
[reply] 64.9

[ask] Given the variant I77F , what is its reported Tm?
[reply] 64.9

[ask] Given the variant I77L , what is its reported Tm?
[reply] 64.9

[ask] Given the variant I77T , what is its reported Tm?
[reply] 64.9
